Cited source for all entries: patent US10590078B2

biological target: human sodium ion channel 1.7 (hNav1.7) (Homo sapiens, UniProt Q15858); test: Blocking effect against sodium ion channel Nav1.7, IonFlux16 auto patch clamp in hNav1.7 HEK293 cells; type: cell-based; conditions: hNav1.7 HEK293 cells; inhibition of peak current after 50 seconds treatment; eight concentrations; read-out: IC50
Sequence (Q15858 whole entry): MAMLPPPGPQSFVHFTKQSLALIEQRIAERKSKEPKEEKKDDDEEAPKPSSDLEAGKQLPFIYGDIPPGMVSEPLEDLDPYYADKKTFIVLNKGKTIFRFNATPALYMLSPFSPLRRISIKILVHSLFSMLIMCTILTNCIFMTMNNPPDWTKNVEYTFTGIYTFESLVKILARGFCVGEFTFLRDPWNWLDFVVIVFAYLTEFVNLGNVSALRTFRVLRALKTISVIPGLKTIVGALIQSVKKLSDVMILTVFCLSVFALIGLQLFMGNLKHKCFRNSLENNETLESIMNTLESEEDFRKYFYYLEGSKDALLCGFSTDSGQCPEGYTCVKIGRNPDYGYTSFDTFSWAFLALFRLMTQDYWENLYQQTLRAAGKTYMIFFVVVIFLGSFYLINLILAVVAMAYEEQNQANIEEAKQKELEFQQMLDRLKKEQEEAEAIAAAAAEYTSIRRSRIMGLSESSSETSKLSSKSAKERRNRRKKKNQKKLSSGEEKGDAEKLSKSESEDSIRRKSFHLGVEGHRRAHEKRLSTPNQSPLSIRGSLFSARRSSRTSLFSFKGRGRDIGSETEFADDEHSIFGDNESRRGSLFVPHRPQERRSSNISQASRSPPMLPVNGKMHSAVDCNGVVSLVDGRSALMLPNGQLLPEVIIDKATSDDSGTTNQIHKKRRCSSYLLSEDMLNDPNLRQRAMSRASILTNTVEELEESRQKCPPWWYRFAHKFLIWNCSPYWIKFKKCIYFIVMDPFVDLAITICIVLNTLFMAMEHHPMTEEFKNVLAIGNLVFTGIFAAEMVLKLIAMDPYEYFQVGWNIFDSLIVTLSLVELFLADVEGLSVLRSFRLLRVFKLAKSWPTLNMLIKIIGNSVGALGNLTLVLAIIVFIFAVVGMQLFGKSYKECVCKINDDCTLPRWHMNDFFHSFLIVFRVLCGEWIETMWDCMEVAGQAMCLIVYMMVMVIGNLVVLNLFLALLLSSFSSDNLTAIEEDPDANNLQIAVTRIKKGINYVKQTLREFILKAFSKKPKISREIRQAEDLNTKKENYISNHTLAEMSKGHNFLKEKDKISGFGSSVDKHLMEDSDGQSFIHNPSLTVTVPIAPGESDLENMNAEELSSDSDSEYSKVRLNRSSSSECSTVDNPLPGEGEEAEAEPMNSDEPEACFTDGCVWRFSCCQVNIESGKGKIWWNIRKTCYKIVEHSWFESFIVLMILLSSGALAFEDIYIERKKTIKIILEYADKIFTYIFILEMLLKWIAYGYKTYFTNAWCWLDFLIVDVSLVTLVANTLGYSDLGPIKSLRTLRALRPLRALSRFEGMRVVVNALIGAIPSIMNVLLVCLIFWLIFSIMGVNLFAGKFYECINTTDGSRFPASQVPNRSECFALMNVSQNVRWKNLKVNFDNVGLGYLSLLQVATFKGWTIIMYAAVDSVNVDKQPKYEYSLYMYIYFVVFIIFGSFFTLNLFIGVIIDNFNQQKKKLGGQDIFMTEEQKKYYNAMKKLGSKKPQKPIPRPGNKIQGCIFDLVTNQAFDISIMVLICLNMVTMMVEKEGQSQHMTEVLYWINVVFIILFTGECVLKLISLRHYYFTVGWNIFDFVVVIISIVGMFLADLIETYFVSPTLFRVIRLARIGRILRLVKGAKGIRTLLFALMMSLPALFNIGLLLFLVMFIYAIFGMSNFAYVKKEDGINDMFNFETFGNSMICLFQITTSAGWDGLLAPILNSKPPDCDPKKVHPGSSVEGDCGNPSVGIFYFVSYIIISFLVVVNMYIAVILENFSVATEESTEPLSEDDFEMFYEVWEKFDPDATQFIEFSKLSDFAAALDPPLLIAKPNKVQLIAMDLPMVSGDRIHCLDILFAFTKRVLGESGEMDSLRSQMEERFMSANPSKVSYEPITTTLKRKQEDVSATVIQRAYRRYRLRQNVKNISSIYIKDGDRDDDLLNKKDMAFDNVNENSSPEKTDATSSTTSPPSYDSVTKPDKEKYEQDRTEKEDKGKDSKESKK
IC50 reference

smiles-code | experimental-system | IC50
CS(=O)(=O)NC(=O)c1cc(Cl)c(-n2ncc3cc(N)ccc32)cc1F | human sodium ion channel 1.7 (hNav1.7) (Homo sapiens, UniProt Q15858) | > 10 µM
CS(=O)(=O)NC(=O)c1ccc(-n2nc(-c3cncc(Cl)c3)c3cc(Cl)ccc32)c(C#N)c1 | human sodium ion channel 1.7 (hNav1.7) (Homo sapiens, UniProt Q15858) | > 10 µM

Could you now look at the following compound, please?
Give reported IC50 for `CS(=O)(=O)NC(=O)c1ccc(-n2nc(-c3cccc(C#N)c3)c3ccccc32)c(C#N)c1` (human sodium ion channel 1.7 (hNav1.7) (Homo sapiens, UniProt Q15858)) > 10 µM
